Measured values drawn from patent US10280198B2 for this set.

# Test system: plasma PTH
# experiment_notes: In vivo PTH lowering after IV bolus in isoflurane-anesthetized normal Sprague Dawley rats
# Design: species or system rat
# condition_parameters: Table 6; normal rats, AUC 1-4 h
Square brackets hold non-standard residues; d marks the D form. Peptide text beside a SMILES is read from it.
The following molecules are listed with their measured 0.5 mg/kg IV bolus % PTH AUC of saline control values.
Please make sure the unit comes right after the number.

[
  {
    "molecule": "CC(=O)N[C@H](CS)C(=O)N[C@H](C)C(=O)N[C@H](CCCNC(=N)N)C(=O)N[C@H](CCCNC(=N)N)C(=O)N[C@H](CCCNC(=N)N)C(=O)N[C@H](CC(C)C)C(=O)N[C@H](CCCNC(=N)N)C(N)=O [SEQ ID NO: 85, Ac-carrrlr-NH2] (Ac-[dC][dA][dR][dR][dR][dL][dR]-NH2)",
    "result": "140%"
  },
  {
    "molecule": "CC(=O)N[C@H](CS)C(=O)N[C@H](CCCNC(=N)N)C(=O)N[C@H](CCCNC(=N)N)C(=O)N[C@H](Cc1ccccc1)C(=O)N[C@H](CCCNC(=N)N)C(=O)N[C@H](C)C(=O)N[C@H](CCCNC(=N)N)C(N)=O [SEQ ID NO: 110, Ac-crrfrar-NH2] (Ac-[dC][dR][dR][dF][dR][dA][dR]-NH2)",
    "result": "6%"
  },
  {
    "molecule": "CC(=O)N[C@H](CS)C(=O)N[C@H](Cc1c[nH]cn1)C(=O)N[C@H](CCCNC(=N)N)C(=O)N[C@H](CCCNC(=N)N)C(=O)N[C@H](CCCNC(=N)N)C(=O)N[C@H](C)C(=O)N[C@H](CCCNC(=N)N)C(N)=O [SEQ ID NO: 103, Ac-chrrrar-NH2] (Ac-[dC][dH][dR][dR][dR][dA][dR]-NH2)",
    "result": "1%"
  },
  {
    "molecule": "CC(=O)N[C@H](CS)C(=O)N[C@H](C)C(=O)N[C@H](CCCNC(=N)N)C(=O)N[C@H](CCCNC(=N)N)C(=O)N[C@H](CCCNC(=N)N)C(=O)N[C@@H](C(=O)N[C@H](CCCNC(=N)N)C(N)=O)[C@H](C)O [SEQ ID NO: 91, Ac-carrrtr-NH2] (Ac-[dC][dA][dR][dR][dR][dT][dR]-NH2)",
    "result": "18%"
  },
  {
    "molecule": "CC[C@@H](C)[C@@H](NC(=O)[C@@H](CCCNC(=N)N)NC(=O)[C@@H](CCCNC(=N)N)NC(=O)[C@@H](CCCNC(=N)N)NC(=O)[C@@H](C)NC(=O)[C@@H](CS)NC(C)=O)C(=O)N[C@H](CCCNC(=N)N)C(N)=O [SEQ ID NO: 84, Ac-carrrir-NH2] (Ac-[dC][dA][dR][dR][dR][dI][dR]-NH2)",
    "result": "161%"
  }
]

Proceed to the following item.
Quick one: 0.5 mg/kg IV bolus % PTH AUC of saline control for CC(=O)N[C@H](CS)C(=O)N[C@H](C)C(=O)N[C@H](CCCNC(=N)N)C(=O)N[C@H](CCCNC(=N)N)C(=O)N[C@H](CCCNC(=N)N)C(=O)N[C@H](Cc1c[nH]cn1)C(=O)N[C@H](CCCNC(=N)N)C(N)=O [SEQ ID NO: 89, Ac-carrrhr-NH2] (Ac-[dC][dA][dR][dR][dR][dH][dR]-NH2) ?
48%
